- System: Fibroblast
- assayName: Multiplex assay against human fibroblast
- Assay type: toxicity, cell-based
- measurementContext: 12 h, 10 µM, compound concentration 10 uM, replicate 1
measurementType: Population Membrane Permeable-Phenotype (%)

- CCC(=O)O[C@]1(C(=O)SCF)[C@H](C)C[C@H]2[C@@H]3C[C@H](F)C4=CC(=O)C=C[C@]4(C)[C@@]3(F)[C@@H](O)C[C@@]21C [FLUTICASONE PROPIONATE]: 38%
- CC(C)N1CCC(C)(C)c2cc(C#Cc3ccc(C(=O)O)cc3)ccc21: 14%

Here is the next item to consider.
Value lookup for Population Membrane Permeable-Phenotype (%); key = CCc1cc2c(cc1CC)CC(NC[C@H](O)c1ccc(O)c3[nH]c(=O)ccc13)C2
1%

* * *

Assignment: determine reported Population Tubulin-Different-Phenotype (%) for the given compounds.
- Tested on: HEK-293T
- assayName: Multiplex assay against HEK293T;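 for Population Tubulin-Different-Phenotype (%): share of the cells with healthy nuclei that show this phenotype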
- Format: toxicity, cell-based
- measurementContext: human, 48 h, 10 µM, compound concentration 10 uM, replicate 1
Give bare numbers, in %.

* COc1ccc(NS(=O)(=O)c2sc3ccc(Cl)cc3c2C)cc1N1CCNCC1.Cl | 95

For every item in the list below, what is its measured Population Tubulin-Different-Phenotype (%)?
1. Cc1cc2c(cc1N1C(=O)c3cccc4c(CCCO)ccc(c34)C1=O)n(C)c(=O)n2C
2. CC(=O)c1cc(-c2cc(C(=O)NC3CC3)ccc2C)c2ncccn12
3. CCCn1c(=O)c2[nH]c(C34CC5CC(CC3C5)C4)nc2n(CCC)c1=O [ROLOFYLLINE]
4. O=C(O)c1ccc2cc(-c3ccc(O)c(C45CC6CC(CC(C6)C4)C5)c3)ccc2c1 [O-DEMETHYLATED ADAPALENE]
5. Cl.Cl.Nc1ncnc2c1c(-c1cccc(OCc3ccccc3)c1)cn2[C@H]1C[C@@H](CN2CCC2)C1
6. C1=N/C2=N/c3ccc(OCCN4CCCC4)c(c3)COC/C=C\COCc3cccc(c3)C(=C1)N2

71
36
87
16
33
0

Okay, here is my list. What is Population Tubulin-Different-Phenotype (%) for each of these?
1. Cc1nc(Cc2cccc(C(F)(F)F)c2)sc1-c1ccc(C(N)=O)nc1 [TP-024n]
2. CC(C)N1CCC(C)(C)c2cc(C#Cc3ccc(C(=O)O)cc3)ccc21

1: 42; 2: 3

* * *

- Test system: Fibroblast
- assayName: Multiplex assay against human fibroblast
- Type: toxicity, cell-based
- measurementContext: 24 h, 1 µM, compound concentration 1 uM, replicate 2
Exercise: for every item that follows, state its recorded Total Cell Count.
Answers are plain numbers.

// known answers, use as guide
- O=C(O)c1ccc2cc(-c3ccc(O)c(C45CC6CC(CC(C6)C4)C5)c3)ccc2c1: 60
- CNC(=O)c1cc(Oc2ccc(NC(=O)Nc3cc(C(C)(C)C)nn3-c3ccc4ncccc4c3)c(F)c2)ccn1: 73
- Cc1cn(-c2cc(NC(=O)c3ccc4c(c3)CN(c3cncnc3)C[C@@H]4C)cc(C(F)(F)F)c2)cn1: 87

// switching to the query compound
Fill in the recorded Total Cell Count for this compound, with Fibroblast as test system: COc1cc2c(NC3CCN(C(C)C)CC3)nc(N3CCC(F)(F)CC3)nc2cc1OCCCN1CCCC1
113

* * *

- Tested on: HEK-293T
- assayName: Multiplex assay against HEK293T
- Format: toxicity, cell-based
- measurementContext: human, 12 h, 1 µM, compound concentration 1 uM, replicate 2
Please mark y if the recorded Population Healthy Nuclei (%) is equal to or greater than 70%, and n if it falls below.

Evaluate CCc1cc2c(cc1CC)CC(NC[C@H](O)c1ccc(O)c3[nH]c(=O)ccc13)C2 : Population Healthy Nuclei (%) at minimum 70%?
n

Can you check CNC(=O)c1nn(C)c2c1C(C)(C)Cc1cnc(Nc3ccc(N4CCN(C)CC4)cc3)nc1-2 next?
y

Subsequent entry: Cc1cn(-c2cc(NC(=O)c3ccc4c(c3)CN(c3cncnc3)C[C@@H]4C)cc(C(F)(F)F)c2)cn1
y

How about CCOc1cc(N2CCC(O)CC2)ccc1Nc1ncc2c(n1)N(C1CCCC1)CCC(=O)N2C ?
y

Also, c1ccc2oc(-c3csc(C4CCN(Cc5nc6ncccc6[nH]5)CC4)n3)cc2c1 please.
y

Then this molecule: Nc1ccc(C(=O)Nc2cccc(-c3nc(N4CCOCC4)c4oc5ncccc5c4n3)c2)cn1
n

Try this molecule next: CC(C)(C)c1cnc(CSc2cnc(NC(=O)C3CCNCC3)s2)o1
y

* * *

- Test system: Fibroblast
- assayName: Multiplex assay against human fibroblast
- Type: toxicity, cell-based
- measurementContext: 12 h, 10 µM, compound concentration 10 uM, replicate 1
Would you kindly list Population Mitochondria Different-Phenotype (%) for each of these compounds?
Give bare numbers, in %.

• CC(=O)c1cc(-c2cc(C(=O)NC3CC3)ccc2C)c2ncccn12 = 23
• Nc1ccc(C(=O)Nc2cccc(-c3nc(N4CCOCC4)c4oc5ncccc5c4n3)c2)cn1 = 9
• COc1ccc(NS(=O)(=O)c2sc3ccc(Cl)cc3c2C)cc1N1CCNCC1.Cl = 40
• c1ccc2oc(-c3csc(C4CCN(Cc5nc6ncccc6[nH]5)CC4)n3)cc2c1 = 1
• Nc1nc2c(c(N3CCNCC3)n1)CCC1=C2[C@@H]2CCCC[C@@H]2O1 = 13
• Cc1cn(-c2cc(NC(=O)c3ccc4c(c3)CN(c3cncnc3)C[C@@H]4C)cc(C(F)(F)F)c2)cn1 = 5
• CCCn1c(=O)c2[nH]c(C34CC5CC(CC3C5)C4)nc2n(CCC)c1=O = 37
• CC(C)(C)c1cnc(CSc2cnc(NC(=O)C3CCNCC3)s2)o1 = 21

// switching to the query compound
Which Population Mitochondria Different-Phenotype (%) value belongs to CCN1CCN(Cc2ccc(NC(=O)c3ccc(C)c(Oc4ccnc5[nH]ccc45)c3)cc2C(F)(F)F)CC1.Cl.Cl.Cl.O ?
8

* * *

- Tested on: Fibroblast
- assayName: Multiplex assay against human fibroblast
- Format: toxicity, cell-based
- measurementContext: 48 h, 10 µM, compound concentration 10 uM, replicate 1
So I've got a bunch of molecules here, and I need their Population Normal (%) values.
Numbers only, in %.

Recorded results for 3 molecules are shown here.
* CCC(=O)O[C@]1(C(=O)SCF)[C@H](C)C[C@H]2[C@@H]3C[C@H](F)C4=CC(=O)C=C[C@]4(C)[C@@]3(F)[C@@H](O)C[C@@]21C [FLUTICASONE PROPIONATE] | 85
* COc1cc(N2CCC(N(C)C)CC2)ccc1Nc1ncc(Cl)c(Nc2ccccc2P(C)(C)=O)n1 | 77
* CCc1cc2c(cc1CC)CC(NC[C@H](O)c1ccc(O)c3[nH]c(=O)ccc13)C2 | 48

Give one value of Population Normal (%) per listed molecule.
1. CC(C)N1CCC(C)(C)c2cc(C#Cc3ccc(C(=O)O)cc3)ccc21
2. Nc1nc2c(c(N3CCNCC3)n1)CCC1=C2[C@@H]2CCCC[C@@H]2O1

22
50

Please go through the list and note Population Normal (%) for each molecule.
1. CCCn1c(=O)c2[nH]c(C34CC5CC(CC3C5)C4)nc2n(CCC)c1=O
2. COc1cc2c(NC3CCN(C(C)C)CC3)nc(N3CCC(F)(F)CC3)nc2cc1OCCCN1CCCC1

1. 82
2. 58

Find the measured Population Normal (%): item Cc1nc(Cc2cccc(C(F)(F)F)c2)sc1-c1ccc(C(N)=O)nc1 [TP-024n] , target or system Fibroblast.
90

* * *

- System: Fibroblast
- assayName: Multiplex assay against human fibroblast
- Assay type: toxicity, cell-based
- measurementContext: 12 h, 1 µM, compound concentration 1 uM, replicate 1
Hi all, reminder that labels come from Population Mitochondria Different-Phenotype (%), split as LOW = under 3%, MID = from 3% up to 7%, HIGH = 7% and over

See these solved cases before continuing.
* CCCn1c(=O)c2[nH]c(C34CC5CC(CC3C5)C4)nc2n(CCC)c1=O [ROLOFYLLINE] | HIGH
* N#Cc1cnc(Nc2cc(NC[C@H]3CNCCO3)c(C(F)(F)F)cn2)cn1 [SRA-737] | LOW
* COc1ccc(NS(=O)(=O)c2sc3ccc(Cl)cc3c2C)cc1N1CCNCC1.Cl | MID
* Nc1nc2c(c(N3CCNCC3)n1)CCC1=C2[C@@H]2CCCC[C@@H]2O1 | LOW
* Nc1ccc(C(=O)Nc2cccc(-c3nc(N4CCOCC4)c4oc5ncccc5c4n3)c2)cn1 | MID
* O=C(O)c1ccc2cc(-c3ccc(O)c(C45CC6CC(CC(C6)C4)C5)c3)ccc2c1 [O-DEMETHYLATED ADAPALENE] | HIGH
* c1ccc2oc(-c3csc(C4CCN(Cc5nc6ncccc6[nH]5)CC4)n3)cc2c1 | HIGH
* CCn1c(-c2nonc2N)nc2cnc(Oc3cccc(NC(=O)c4ccc(OCCN5CCOCC5)cc4)c3)cc21 [GSK-269962A] | LOW
* CCC(=O)O[C@]1(C(=O)SCF)[C@H](C)C[C@H]2[C@@H]3C[C@H](F)C4=CC(=O)C=C[C@]4(C)[C@@]3(F)[C@@H](O)C[C@@]21C [FLUTICASONE PROPIONATE] | LOW
* COc1cc2c(NC3CCN(C(C)C)CC3)nc(N3CCC(F)(F)CC3)nc2cc1OCCCN1CCCC1 | HIGH

Next molecule, please.
Determine which band this molecule sits in: COc1cc(N2CCC(N(C)C)CC2)ccc1Nc1ncc(Cl)c(Nc2ccccc2P(C)(C)=O)n1
MID
